# experimental details: hepatitis C replication reporter changes, two-sided – Huh7 cells, luciferase reporter, HCV replication inhibitor project, primary screen (AID 1109);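 also: huh7 hepatoma cells harbouring a luciferase neomycin HCV replicon reporter; luciferase luminescence as measure of HCV replicon replication; test concentration not given here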
# applied conditions: Huh7 HCV replicon luciferase reporter, 48 h; higher = more signal
Assign Criterion met whenever z-score does not fall below -0.4; assign Criterion not met whenever it does.

Prompt: Would you say Cn1c2c(c3ccccc31)C(=O)C1NC2C=CC1(C)C(=O)OCc1ccccc1 (centres undefined) shows z-score at minimum -0.4?
Response: Criterion not met

Prompt: Does the reported z-score for CCN(CC)c1ccc(N2CC=CC34O[C@@H]5C=CCCOC(=O)C5[C@H]3C(=O)N(CCCO)[C@@H]4C2=O)cc1 (some centres undefined) fall at or above the -0.4 mark?
Response: Criterion met

Prompt: In plain terms: is recorded z-score at least -0.4 for CN1C(=O)C2C=CC(C(O)c3ccc(Br)cc3)N(Nc3ccccc3)C2C1=O (centres undefined) ?
Response: Criterion met

Prompt: Exam item: decide whether the reported z-score for [N-]=[N+]=Nc1ccccc1[C@@H]1OC(c2ccc(OCCCO)cc2)=N[C@]1(CCS(=O)(=O)c1ccccc1)C(=O)N1CCCCC1 is at least -0.4.
Response: Criterion met

Prompt: Textbook exercise: given the entry O=C1C2C=CC(C(O)c3ccccn3)N(Nc3ccccc3F)C2C(=O)N1c1ccccc1 (centres undefined) , state whether its z-score is greater than or equal to -0.4.
Response: Criterion met

Prompt: Determine whether this compound has z-score no lower than -0.4: C=CCC(OC(C)=O)[C@@H]1[C@@H](N(Cc2ccc(-c3ccccc3)cc2)C(=O)c2ccc(C)cc2)c2cc(OCCCO)ccc2N1C(=O)Cc1ccc(OC)cc1 (some centres undefined)
Response: Criterion not met

Prompt: Form field: z-score at least -0.4? Entry: CC(C)[C@H]1COC(=O)N1C(=O)[C@H]1[C@@H](c2ccccc2)N(c2ccccc2)O[C@@H]1C
Response: Criterion met

Prompt: Is the recorded value of z-score equal to or greater than -0.4 for this compound? C=CCN1C(=O)[C@@]2(O[C@@H](CCO)[C@H]([Si](C)(C)c3ccc(OC)cc3)[C@H]2C)c2cc(N3C(=O)COc4ccccc43)ccc21
Response: Criterion not met

Prompt: Hi, just wondering whether C=CC[C@@]1(C(N)=O)N=C(c2ccc(OCCCO)cc2)O[C@@H]1c1ccccc1N=[N+]=[N-] shows z-score of -0.4 or higher.
Response: Criterion met

Prompt: State whether the measured z-score reaches -0.4, counting equality as reaching it, for COc1ccc([Si](C)(C)[C@@H]2[C@@H](CCO)O[C@]3(C(=O)N(Cc4ccc(N5C(=O)c6cccc7cccc5c67)cc4)c4ccccc43)[C@H]2C)cc1
Response: Criterion not met

Prompt: Check the entry C=CCC(OC(C)=O)[C@@H]1[C@@H](N(Cc2cc3ccccc3o2)C(=O)c2ccc(C)cc2)c2cc(OCCCO)ccc2N1C(=O)c1ccc(-c2ccccc2)cc1 (some centres undefined) : does z-score equal or exceed -0.4?
Response: Criterion not met

Prompt: Could you verify whether the entry CS(=O)(=O)CCOC(=O)C1=CC(c2ccc(CO)cc2)=CC(c2cccs2)N(Cc2cccc(OC(F)(F)F)c2)C=C1C(=O)OCCS(C)(=O)=O (centres undefined) shows z-score of no less than -0.4?
Response: Criterion not met

Prompt: Is the recorded value of z-score equal to or greater than -0.4 for this compound? CN(C)CCCC[C@@H]1NC(=O)[C@H]2C[C@@H](C(=O)NCCCCCNC(=O)CS)[C@@H](c3ccc(O)cc3)N2C1=O
Response: Criterion met

Prompt: Could you tell me if the measured z-score of CC(C)C(O)C1C=CC2C(=O)N(C)C(=O)C2N1N1CCCCC1 (centres undefined) reaches -0.4 or more?
Response: Criterion met

Prompt: Threshold query (z-score >= -0.4) on C=CC[C@@]1(C(=O)OC)N=C(c2ccc(OCCCO)cc2)O[C@@H]1c1ccccc1CN=[N+]=[N-]
Response: Criterion not met

Prompt: For this compound, is measured z-score -0.4 or higher? C[N+](C)(C)CCCCNC(=O)[C@H]1C[C@H]2C(=O)N3CCC[C@H]3C(=O)N2[C@H]1c1ccc(O)cc1
Response: Criterion not met

Prompt: Assess whether reported z-score for O=C1O[C@H](c2ccccc2)[C@H](c2ccccc2)N2[C@H]1[C@@H](C(=O)NC[C@H](O)c1ccccc1)[C@]1(C(=O)Nc3ccc(C#CC4=CCCCC4)cc31)[C@H]2c1ccc(O)cc1 sits at -0.4 or higher.
Response: Criterion not met

Prompt: Could you verify whether the entry O=C(NCc1ccccc1)[C@@H]1c2ccccc2C(=O)N(C2CCCCC2)[C@H]1c1ccc(CO)cc1 shows z-score of no less than -0.4?
Response: Criterion met

Prompt: Given the entry O=C(NCC(O)CO)[C@]1(CCS(=O)(=O)c2ccccc2)N=C(c2ccc(OCCCO)cc2)O[C@@H]1c1ccccc1 (some centres undefined) , answer whether its z-score meets or surpasses -0.4.
Response: Criterion met

Prompt: Evaluate CC(C)(C)OC(=O)CC[C@]1(C(=O)NCC(O)CO)N=C(c2ccc(OCCCO)cc2)O[C@H]1c1ccccc1CN=[N+]=[N-] (some centres undefined) : z-score at minimum -0.4?
Response: Criterion met

Prompt: Quick check, z-score >= -0.4? CO[C@H]1O[C@H](CO)[C@@H](OC(=O)Nc2ccc3c(c2)OCO3)[C@H](OC(=O)Nc2ccc3c(c2)OCO3)[C@H]1OC(=O)Nc1ccc2c(c1)OCO2
Response: Criterion met

Prompt: Dear colleague, could you confirm whether C=CCN1C(=O)[C@]2(COC(c3ccc(OCCCO)cc3)=N2)Cc2ccccc21 has z-score at or above -0.4?
Response: Criterion met

Prompt: Is reported z-score greater than or equal to -0.4 here: COc1ccc([Si](C)(C)[C@H]2[C@H](CC(=O)N3CCC[C@H]3CO)O[C@@]3(C(=O)N(Cc4cccc(N5CCC5=O)c4)c4ccccc43)[C@@H]2C)cc1
Response: Criterion not met

Prompt: Reported z-score reaches at least -0.4 for COc1ccc([Si](C)(C)[C@H]2[C@H](CCO)O[C@@]3(C(=O)N(Cc4ccccc4)c4ccc(N5C(=O)COc6ccccc65)cc43)[C@@H]2C)cc1 ?
Response: Criterion not met

Prompt: In plain terms: is recorded z-score at least -0.4 for COc1ccc([Si](C)(C)[C@@H]2[C@@H](CCO)O[C@]3(C(=O)N(Cc4cccc(N5CCCCC5=O)c4)c4ccccc43)[C@H]2C)cc1 ?
Response: Criterion not met

Prompt: Could you tell me if the measured z-score of Cc1ccc(S[C@]2(C(=O)NCCN3CCOCC3)CC(=O)N(C3CCCCC3)[C@@H]2c2ccc(CO)cc2)cc1 reaches -0.4 or more?
Response: Criterion not met

Prompt: Dear colleague, could you confirm whether [N-]=[N+]=Nc1ccccc1C[C@]1(C(=O)N2CCCCC2)N=C(c2ccc(OCCCO)cc2)O[C@H]1c1ccccc1N=[N+]=[N-] has z-score at or above -0.4?
Response: Criterion not met

Prompt: Has COc1ccc(C#Cc2ccc3c(c2)[C@]2(C(=O)N3)[C@H](C(=O)N3CCc4cc(OC)c(OC)cc4C3)[C@H]3C(=O)O[C@H](c4ccccc4)[C@H](c4ccccc4)N3[C@@H]2c2ccc(OCCO)cc2)cc1 a recorded z-score greater than or equal to -0.4?
Response: Criterion not met
